test system: Bacillus subtilis; experiment: cleaved RNA product abundance (RNA/gDNA barcode ratio) relative to median wild-type variant (ratio to wild type); higher = more accumulation of the downstream cleavage product; details: experiment (reporter, strain, medium): exp 4a: truncated aprE reporter, strain BJT201 with 2% xylose (RNase J1 expressed); cleavage site: cggR-gapA (positions -7 to +36 mutated)
Provide the reported cleaved RNA product abundance of each item.
Lab note: write the figure by itself, no unit.

IN: Item ACAGACGAAGGAGCCGCAAAAAAGTTGTTAAGGGATGAATAATCCCTCAATATAAATATCTCTCACTTATTTAAA with Bacillus subtilis - cleaved RNA product abundance?
OUT: 0.355

IN: Repeat for the following sequence: ACAGACGAAGGAGCCGCAAAGAAGTTATTAATGGATGAATAATCCCTCAATATAAAGATCTCTCACTTATTTAAA
OUT: 0.0975

IN: Repeat for the following sequence: ACAGACGAAGGAGCCGCAAAGAAGTTATTAAGGGATTAATAATCCCTCAATATAAATATATCTCACTTATTTAAA
OUT: 1.23

IN: Repeat for the following sequence: ACAGACGAAGGAGCCGCAAAGAATTTATTAAGTGATGAATAATCCCTCAATATAAATATCTCTCACTTATTTAAA
OUT: 0.118

IN: Repeat for the following sequence: ACAGACGAAGGAGCCGCAAATAAGTTATTAAGGGATGAAAAATCCCTCAATATAAATATCTCTCACTTATTTAAA
OUT: 0.841

IN: Repeat for the following sequence: ACAGACGAAGGAGCCGCAAAGAAGTTATTATGGGATGAATAAACCCTCAATATAAATATCTCTCACTTATTTAAA
OUT: 0.21

IN: Repeat for the following sequence: ACAGACGAAGGAGCCGCAAAGAAGTTATTAGGTGATGAATAATCCCTCAATATAAATATCTCTCACTTATTTAAA
OUT: 0.331

IN: Repeat for the following sequence: ACAGACGAAGGAGCCGCAAAGAAGTTATTAAGGGATGAATTATCCATCAATATAAATATCTCTCACTTATTTAAA
OUT: 0.144

IN: Repeat for the following sequence: ACAGACGAAGGAGCCGCATAGAACTTATTAAGGGATGAATAATCCCTCAATATAAATATCTCTCACTTATTTAAA
OUT: 0.499

IN: Repeat for the following sequence: ACAGACGAAGGAGCCGCAAAGAAGTAATTAAGGGATCAATAATCCCTCAATATAAATATCTCTCACTTATTTAAA
OUT: 0.305

IN: Repeat for the following sequence: ACAGACGAAGGAGCCGCAAAGAAATTATTAAGAGATGAATAATCCCTCTATATAAATATCTCTCACTTATTTAAA
OUT: 0.117

IN: Repeat for the following sequence: ACAGACGAAGGAGCCGCAAAGAAGTTATTAAGGGATGAATAATCCTTCAGTATAAATATCTCTCACTTATTTAAA
OUT: 0.166

IN: Repeat for the following sequence: ACAGACGAAGGAGCCGCAAAGAAGTTATTAAGGGAGCAATAATCCCTCAATATAAATATCTCTCACTTATTTAAA
OUT: 0.631

IN: Repeat for the following sequence: ACAGACGAAGGAGCCGCAAAAAAGTTATTAAGGGATGAATAATCCCTCACTATAAATATCTCTCACTTATTTAAA
OUT: 0.537

IN: Repeat for the following sequence: ACAGACGAAGGAGCCGCAAAGAAGTTATTAAGGAATGAATAATCGCTCAATATAAATATCTCTCACTTATTTAAA
OUT: 0.0645
